# target: PfcProRS (Plasmodium falciparum, UniProt Q8I5R7)
# Sequence (Q8I5R7 whole entry): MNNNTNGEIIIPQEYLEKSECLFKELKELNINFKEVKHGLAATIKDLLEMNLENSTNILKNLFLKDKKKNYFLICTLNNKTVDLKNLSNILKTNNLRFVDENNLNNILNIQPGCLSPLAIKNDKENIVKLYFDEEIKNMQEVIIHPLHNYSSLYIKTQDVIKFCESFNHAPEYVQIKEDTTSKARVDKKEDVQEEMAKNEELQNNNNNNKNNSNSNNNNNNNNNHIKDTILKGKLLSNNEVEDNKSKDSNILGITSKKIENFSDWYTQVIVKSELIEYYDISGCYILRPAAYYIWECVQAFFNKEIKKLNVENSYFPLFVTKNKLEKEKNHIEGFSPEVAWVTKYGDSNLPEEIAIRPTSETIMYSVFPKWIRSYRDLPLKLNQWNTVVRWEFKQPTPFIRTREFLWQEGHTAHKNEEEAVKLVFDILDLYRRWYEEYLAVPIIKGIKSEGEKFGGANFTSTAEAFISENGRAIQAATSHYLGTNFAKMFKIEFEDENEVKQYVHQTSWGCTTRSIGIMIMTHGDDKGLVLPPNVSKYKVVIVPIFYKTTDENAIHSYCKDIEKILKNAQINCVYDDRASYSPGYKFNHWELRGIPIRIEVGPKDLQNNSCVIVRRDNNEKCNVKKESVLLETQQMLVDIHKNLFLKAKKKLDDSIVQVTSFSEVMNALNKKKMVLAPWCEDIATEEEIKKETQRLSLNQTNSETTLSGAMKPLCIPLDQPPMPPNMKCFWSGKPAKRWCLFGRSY
# experiment.description: TR-FRET ligand displacement assay with tracer MAT379, PfcProRS
# Assay type: binding
# recorded.conditions: read-out: PfcProRS (KD [nM]) +proline; 100 μM Pro
quantity.measured: log10 Kd (log10 of the value in nM)
Record value = log10 of Kd given in nM.

In: Name the recorded log10 Kd of O=C(CCCCCNC(=S)Nc1ccccc1)NCC1CCN(C(=O)Nc2nccnc2C(=O)NC2Cc3ccccc3C2)CC1 , assay system PfcProRS (Plasmodium falciparum, UniProt Q8I5R7).
Out: 1.90

In: Please report the measured log10 Kd for O=C(CCCCCNC(=O)Nc1ccccc1)NCC1CCN(C(=O)Nc2nccnc2C(=O)NC2Cc3ccccc3C2)CC1 tested on PfcProRS (Plasmodium falciparum, UniProt Q8I5R7).
Out: 1.78

In: Quote PfcProRS (Plasmodium falciparum, UniProt Q8I5R7) log10 Kd for entry O=C(CCCCCNC(=S)Nc1ccccc1)NC1CCN(C(=O)Nc2nccnc2C(=O)NC2Cc3ccccc3C2)CC1 .
Out: 1.79

In: Name the recorded log10 Kd of CC(C)(C)OC(=O)NCCCCCC(=O)NCCCCCC(=O)NC1CCN(C(=O)Nc2nccnc2C(=O)NC2Cc3ccccc3C2)CC1 , assay system PfcProRS (Plasmodium falciparum, UniProt Q8I5R7).
Out: 2.52

In: State the measured log10 Kd (PfcProRS (Plasmodium falciparum, UniProt Q8I5R7)) of NCCCCCC(=O)NCCCCCC(=O)NC1CCN(C(=O)Nc2nccnc2C(=O)NC2Cc3ccccc3C2)CC1
Out: 3.29

In: Provide measured log10 Kd on PfcProRS (Plasmodium falciparum, UniProt Q8I5R7) for O=C(CCCCCNC(=S)NC1CCCCC1)NC1CCN(C(=O)Nc2nccnc2C(=O)NC2Cc3ccccc3C2)CC1 please.
Out: 2.23

---

# Test system: P. falciparum Dd2-2D4
# experiment.description: P. falciparum asexual blood stage growth assay, wild-type Dd2-2D4
# recorded.conditions: Plasmodium falciparum, DD2, 72 h, read-out: Dd2 (EC50 [nM]) wt
quantity.measured: EC50 (nM)
Numbers only here, please. The scale is nM.

In: Input NC1(C(=O)Nc2nccnc2C(=O)NC2Cc3ccccc3C2)CCCCC1 , output reported EC50.
Out: 5790

In: Find the measured EC50 of Nc1ncnc2c1ncn2[C@@H]1O[C@H](COS(=O)(=O)NC(=O)[C@@H]2CCCN2)[C@@H](O)[C@H]1O [ProSA (25), 5′-O—[N-(L-Prolyl)-sulfamoyl]adenosine, reference compound] and report it.
Out: 151

In: Return EC50 for the following compound: O=C(NC1Cc2ccccc2C1)c1nccnc1NC(=O)C1CCC1
Out: 3740

In: Quickly give me recorded EC50 for O=C(Nc1nccnc1C(=O)NC1Cc2ccccc2C1)c1ccccc1
Out: 9600

---

# target: UniProtKB P07814
# Sequence (P07814 1007-1512 limits assumed): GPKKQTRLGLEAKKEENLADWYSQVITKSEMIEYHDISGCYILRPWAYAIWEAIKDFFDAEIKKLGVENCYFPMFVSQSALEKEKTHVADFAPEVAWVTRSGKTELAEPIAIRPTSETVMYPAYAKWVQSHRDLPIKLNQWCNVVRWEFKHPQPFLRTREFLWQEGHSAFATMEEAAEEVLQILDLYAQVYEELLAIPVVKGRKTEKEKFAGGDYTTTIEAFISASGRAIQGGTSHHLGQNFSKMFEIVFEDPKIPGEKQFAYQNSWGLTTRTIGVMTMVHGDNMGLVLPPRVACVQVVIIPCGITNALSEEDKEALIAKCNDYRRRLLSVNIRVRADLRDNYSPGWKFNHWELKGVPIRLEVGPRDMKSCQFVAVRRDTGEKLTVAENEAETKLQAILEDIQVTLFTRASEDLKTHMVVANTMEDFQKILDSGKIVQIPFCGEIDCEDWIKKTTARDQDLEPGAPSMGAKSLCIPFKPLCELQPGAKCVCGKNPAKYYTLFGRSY
# experiment.description: TR-FRET ligand displacement assay with tracer MAT379, HsProRS
# Format: binding
# recorded.conditions: read-out: HsProRS (KD [nM]) −; no proline, no ATP
quantity.measured: Kd (nM)
Give the value in nM but do not write nM after it.

In: Hello, please tell me recorded Kd for this one: CC(C)(C)OC(=O)NCCCCCC(=O)NCCCCCC(=O)NC1CCN(C(=O)Nc2nccnc2C(=O)NC2Cc3ccccc3C2)CC1 [MAT420]
Out: 415

---

# target: PfcProRS (Plasmodium falciparum, UniProt Q8I5R7)
# experiment.description: TR-FRET ligand displacement assay with tracer MAT379, PfcProRS
# Assay type: binding
# recorded.conditions: absence of proline; read-out: KD for PfcProRS
pKd: −log10 of the molar value.
Hi, to clarify the labels: fulfilled covers pKd from 6 upward, not fulfilled covers anything below 6.

In: Hi team, for O=C(NS(=O)(=O)NCC1CCN(C(=O)Nc2nccnc2C(=O)NC2Cc3ccccc3C2)CC1)OCCn1cnc2ccccc2c1=O [MAT514] , is the recorded pKd at or above 6?
Out: fulfilled

In: Has O=C(NS(=O)(=O)N1CCN(C(=O)Nc2nccnc2C(=O)NC2Cc3ccccc3C2)CC1)O[C@@H]1CCCNC1 [MAT447] a recorded pKd greater than or equal to 6?
Out: not fulfilled

In: Kindly determine if pKd recorded for O=C(CCCCCNC(=S)NC1CCCCC1)NCC1CCN(C(=O)Nc2nccnc2C(=O)NC2Cc3ccccc3C2)CC1 [MAT518] is above or exactly 6.
Out: fulfilled

In: Please indicate if the recorded pKd for O=C(CCCCCNC(=O)Nc1ccccc1)NC1CCN(C(=O)Nc2nccnc2C(=O)NC2Cc3ccccc3C2)CC1 [MAT515] meets or exceeds 6.
Out: fulfilled

---

# target: UniProtKB P07814
# experiment.description: TR-FRET ligand displacement assay with tracer MAT379, HsProRS
# Assay type: binding
quantity.measured: Kd

In: Identify the reported Kd for the following entry. O=C(O)CCCC(=O)Nc1nccnc1C(=O)NC1Cc2ccccc2C1
Out: > 5.09 µM

In: Item CNc1nccnc1C(=O)NC1Cc2ccccc2C1 : provide Kd
Out: > 5.09 µM

In: Tell me Kd reported for O=C(NC1CCCCC1)c1nccnc1NC(=O)C1Cc2ccccc2C1
Out: > 5.09 µM

In: Consider the compound O=C(NS(=O)(=O)N1CCN(C(=O)Nc2nccnc2C(=O)NC2Cc3ccccc3C2)CC1)O[C@H]1CCCN[C@@H]1CC(O)Cn1cnc2cc(Br)c(Cl)cc2c1=O (some centres unmarked) [MAT583, 2,2,2-trifluoroacetate] . State its measured Kd.
Out: 0.15 µM

In: Please report Kd for the following compound: O=C(C[C@H]1NCCC[C@@H]1O)Cn1cnc2cc(Br)c(Cl)cc2c1=O [halofuginone(1), halofuginone, reference compound]
Out: 2.04 µM

In: Tell me Kd reported for CC(C)(C)OC(=O)NC1(C(=O)Nc2nccnc2C(=O)NC2Cc3ccccc3C2)CCCCC1
Out: > 5.09 µM

In: Supply reported Kd belonging to this compound: O=C(NS(=O)(=O)NCC1CCN(C(=O)Nc2nccnc2C(=O)NC2Cc3ccccc3C2)CC1)OCCn1cnc2ccccc2c1=O
Out: 0.372 µM

In: Provide Kd value for the following compound: CC(C)(C)OC(=O)N1CCN(C(=O)Nc2nccnc2C(=O)NC2Cc3ccccc3C2)CC1
Out: > 5.09 µM

---

# System: P. falciparum Dd2-2D4
# experiment.description: P. falciparum asexual blood stage growth assay, wild-type Dd2-2D4
# recorded.conditions: Plasmodium falciparum, DD2, 72 h, read-out: Dd2 (EC50 [nM]) wt
Counter-ions that a name gives are not always drawn.
quantity.measured: EC50 (nM)
# output: bare number, implied unit nM

In: Lab note: record EC50 of CC(C)(C)OC(=O)NCCCCCC(=O)NC1CCN(C(=O)Nc2nccnc2C(=O)NC2Cc3ccccc3C2)CC1 tested on P. falciparum Dd2-2D4.
Out: 2110

In: Please indicate recorded EC50 of NCCCCCC(=O)NC1CCN(C(=O)Nc2nccnc2C(=O)NC2Cc3ccccc3C2)CC1 [Compound 42, dihydrochloride] measured with P. falciparum Dd2-2D4.
Out: 3120

In: Look up and report measured EC50 (P. falciparum Dd2-2D4) for the following compound: CC(C)(C)OC(=O)NC1(C(=O)Nc2nccnc2C(=O)NC2Cc3ccccc3C2)CCCCC1
Out: 6110

---

# System: P. falciparum Dd2-2D4
# experiment.description: P. falciparum asexual blood stage growth assay, wild-type Dd2-2D4
# recorded.conditions: Plasmodium falciparum, DD2, 72 h, read-out: Dd2 (EC50 [nM]) wt
Where a name gives a salt, the structure may show the parent alone.
Field: label. Allowed values: Met (EC50 < 2000 nM) or Not met (EC50 >= 2000 nM).

In: hey, is EC50 for Nc1nccnc1C(=O)NC1Cc2ccccc2C1 lower than 2000 nM or not?
Out: Not met

In: For O=C(NC1Cc2ccccc2C1)c1nccnc1NC(=O)C1(O)CCCCC1 , is the recorded EC50 below the cut-off of 2000 nM?
Out: Met

In: Lab note: EC50 threshold 2000 nM. Does this molecule come in strictly under it? O=C(CCCCCNC(=S)Nc1ccccc1)NC1CCN(C(=O)Nc2nccnc2C(=O)NC2Cc3ccccc3C2)CC1
Out: Not met

In: Dear colleague, could you confirm whether EC50 of O=C(C[C@H]1NCCC[C@@H]1OC(=O)NS(=O)(=O)N1CCN(C(=O)Nc2nccnc2C(=O)NC2Cc3ccccc3C2)CC1)Cn1cnc2cc(Br)c(Cl)cc2c1=O (relative stereo) [MAT436 (34), hydrobromide] falls below 2000 nM? Thanks.
Out: Met

In: EC50 strictly < 2000 nM for this molecule? CC(C)(C)OC(=O)NCCCCCC(=O)NCC1CCN(C(=O)Nc2nccnc2C(=O)NC2Cc3ccccc3C2)CC1
Out: Not met

In: Is the reported EC50 for O=C(NS(=O)(=O)NCC1CCN(C(=O)Nc2nccnc2C(=O)NC2Cc3ccccc3C2)CC1)OCCn1cnc2ccccc2c1=O strictly below 2000 nM?
Out: Not met

In: Would you kindly verify if EC50 of O=C(NC1Cc2ccccc2C1)c1nccnc1NC(=O)C1CCCCC1 [Compound 2, reference compound] is strictly less than 2000 nM?
Out: Met
